target: Protoporphyrinogen oxidase (Bacillus subtilis (strain 168), UniProt P32397); assay: Inhibition of Bacillus subtilis Protoporphyrinogen oxidase by capillary electrophoresis
Sequence (P32397 whole entry): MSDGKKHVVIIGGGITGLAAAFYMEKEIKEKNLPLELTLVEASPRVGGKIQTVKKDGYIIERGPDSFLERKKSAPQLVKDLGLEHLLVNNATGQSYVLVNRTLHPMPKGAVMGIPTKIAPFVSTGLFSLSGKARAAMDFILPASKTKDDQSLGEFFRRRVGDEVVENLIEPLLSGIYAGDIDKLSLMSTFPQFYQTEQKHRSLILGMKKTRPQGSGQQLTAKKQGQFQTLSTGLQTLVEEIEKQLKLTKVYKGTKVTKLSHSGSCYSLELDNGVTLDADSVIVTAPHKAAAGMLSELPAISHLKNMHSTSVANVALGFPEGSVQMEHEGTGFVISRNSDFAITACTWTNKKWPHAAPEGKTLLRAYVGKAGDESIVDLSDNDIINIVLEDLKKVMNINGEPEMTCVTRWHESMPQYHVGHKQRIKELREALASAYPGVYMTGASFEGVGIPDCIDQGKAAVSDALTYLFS
Record form. Attribute: pKi. Fill in for each entry.
// field semantics: pKi = negative decimal log of concentration (mol/L)

IN: Tell me the measured pKi of C#CCN1C(=O)C(C)Oc2cc(F)c(N3C(=O)c4cccc(F)c4C3=O)cc21 (stereo not drawn) , please.
OUT: 5.30

IN: Check "O=C(Nc1cccc(C(F)(F)F)c1)Nc1cc(N2C(=O)C3=C(CCCC3)C2=O)c(F)cc1Cl" too.
OUT: 7.60

IN: Check CCOC(=O)C(CC)N1C(=O)COc2cc(F)c(N3C(=O)C4=C(CCCC4)C3=O)cc21 (stereo not drawn) too.
OUT: 7.35
